Data provenance is patent US11149054B2.

- SUBJECT_OF_TEST: GlunN1/GluN2A glutamate receptors (Homo sapiens (Human), UniProt Q05586+Q12879)
- Sequence (Q12879 23-1464, other chains not shown): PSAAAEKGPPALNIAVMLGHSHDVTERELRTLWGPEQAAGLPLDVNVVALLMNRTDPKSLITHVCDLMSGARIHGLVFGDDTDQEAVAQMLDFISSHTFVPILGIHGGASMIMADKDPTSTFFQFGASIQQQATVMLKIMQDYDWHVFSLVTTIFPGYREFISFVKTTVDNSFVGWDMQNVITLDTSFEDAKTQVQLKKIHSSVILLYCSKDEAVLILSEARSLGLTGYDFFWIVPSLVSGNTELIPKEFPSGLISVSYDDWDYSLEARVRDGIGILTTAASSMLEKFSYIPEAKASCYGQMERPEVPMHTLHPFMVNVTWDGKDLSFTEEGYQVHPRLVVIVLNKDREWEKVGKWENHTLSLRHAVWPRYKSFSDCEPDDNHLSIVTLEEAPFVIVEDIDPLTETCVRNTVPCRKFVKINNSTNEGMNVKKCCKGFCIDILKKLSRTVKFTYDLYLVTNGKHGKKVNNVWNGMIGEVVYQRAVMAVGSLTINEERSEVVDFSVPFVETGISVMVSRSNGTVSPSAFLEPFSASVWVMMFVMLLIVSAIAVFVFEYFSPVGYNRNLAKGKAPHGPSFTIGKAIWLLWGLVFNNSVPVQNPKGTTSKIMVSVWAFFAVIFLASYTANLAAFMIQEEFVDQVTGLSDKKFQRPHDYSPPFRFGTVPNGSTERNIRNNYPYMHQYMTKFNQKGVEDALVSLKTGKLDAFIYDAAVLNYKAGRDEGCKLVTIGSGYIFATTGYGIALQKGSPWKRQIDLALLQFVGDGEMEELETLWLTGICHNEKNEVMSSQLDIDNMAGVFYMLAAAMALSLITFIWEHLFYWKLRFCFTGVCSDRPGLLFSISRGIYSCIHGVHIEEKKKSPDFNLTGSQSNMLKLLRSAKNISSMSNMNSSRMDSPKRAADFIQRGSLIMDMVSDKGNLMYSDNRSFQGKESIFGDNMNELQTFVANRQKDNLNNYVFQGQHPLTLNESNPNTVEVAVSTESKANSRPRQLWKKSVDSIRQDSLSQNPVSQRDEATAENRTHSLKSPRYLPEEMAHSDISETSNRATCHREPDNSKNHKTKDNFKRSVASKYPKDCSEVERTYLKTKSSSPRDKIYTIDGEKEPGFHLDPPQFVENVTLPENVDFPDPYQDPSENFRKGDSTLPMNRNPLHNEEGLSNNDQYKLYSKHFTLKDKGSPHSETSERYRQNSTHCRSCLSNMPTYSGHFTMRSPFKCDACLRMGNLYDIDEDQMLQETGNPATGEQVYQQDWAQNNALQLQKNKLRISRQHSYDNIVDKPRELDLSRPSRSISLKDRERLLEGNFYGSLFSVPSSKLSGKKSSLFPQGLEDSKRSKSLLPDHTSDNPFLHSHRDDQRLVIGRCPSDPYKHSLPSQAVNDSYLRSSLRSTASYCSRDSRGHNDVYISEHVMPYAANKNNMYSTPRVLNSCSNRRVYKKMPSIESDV
- TEST_METHOD_NOTES: Whole-cell patch clamp of mammalian cells (Ionworks Barracuda), positive allosteric modulation, GluN1/GluN2A
- Assay type: cell-based
- CONDITION_SET: HEK293 cells; % potentiation of current elicited with EC20 L-glutamate and 30 μM glycine; read-out: Avg Emax 2A (%)
Emax reference
Give the number; % is assumed, so skip it.

Sample answers from the record:
CC[C@]1(O)CC[C@@]2(C)C(=CC[C@H]3[C@@H]4CC[C@H]([C@H](C)CC[C@@H](O)c5cccc(F)c5)[C@@]4(C)CC[C@@H]32)C1 (single isomer, unassigned) : 241
CC[C@H]1CC[C@](O)(CC[C@@H](C)[C@H]2CC[C@H]3[C@@H]4CC[C@H]5C[C@](O)(C(F)(F)F)CC[C@]5(C)[C@H]4CC[C@]23C)CC1 : -3.3
CC(C)[C@H]1CC[C@](O)(CC[C@@H](C)[C@H]2CC[C@H]3[C@@H]4CC[C@H]5C[C@](O)(C(F)(F)F)CC[C@]5(C)[C@H]4CC[C@]23C)CC1 : -13.3
CC[C@]1(O)CC[C@H]2C(=CC[C@@H]3[C@@H]2CC[C@]2(C)[C@@H]([C@H](C)CCC[C@@H](C)O)CC[C@@H]32)C1 : 64.5

// moving on: another record for Emax
The compound CC[C@]1(O)CC[C@H]2C(=CC[C@@H]3[C@@H]2CC[C@]2(C)[C@@H]([C@H](C)CCC4(O)CC4)CC[C@@H]32)C1 , tested on GlunN1/GluN2A glutamate receptors (Homo sapiens (Human), UniProt Q05586+Q12879), showed Emax of 73
